# tested target: T1, Biotin-huCGRPaSA (human, not fully specified; biotin (position not given))
# T1 construct: exact construct ('aSA') not explained; also called Biotin CGRPaSA; full-length (1-37) CGRP
# T1 peptide: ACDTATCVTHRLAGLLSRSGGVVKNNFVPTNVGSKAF
# procedure details: ELISA, supernatant; relative to chimeric C245
We label by threshold. Values of Relative binding activity, % strictly beneath 70% are 1. Values of 70% and up are 0.

binder	class name
hu172 (antibody, V domains shown, 3E5 HC-3/1A2 LC2-3) VH: QVQLVQSGAEVKKPGASVKVSCKASGYTFTDYNMHWVRQAPGQGLEWMGYISPYNGGTAYNQKFKFRVTLTVDTSSSTAYMELSRLRSDDTVVYYCAREGLGGYWGQGTLVTVSS VL: EIVLTQSPATLSLSPGERATLSCKASQNIDYDGYAYLNWYQQKPGQAPRVLIYSVFNLESGIPARFSGSGSGTDFTLTISSLEPEDFAVYYCQQSNEFPYTFGQGTKLEIK	0
hu25 (antibody, V domains shown, 1B2 HC-2/3H10 LC2-1) VH: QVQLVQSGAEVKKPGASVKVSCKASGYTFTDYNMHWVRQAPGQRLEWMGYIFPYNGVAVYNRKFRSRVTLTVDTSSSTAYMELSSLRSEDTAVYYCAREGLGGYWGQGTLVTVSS VL: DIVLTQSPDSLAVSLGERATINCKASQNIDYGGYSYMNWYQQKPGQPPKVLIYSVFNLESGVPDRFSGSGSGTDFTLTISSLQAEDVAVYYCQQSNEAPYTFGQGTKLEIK	1
hu16 (antibody, V domains shown, 1B2 HC-2/1A2 LC2-3) VH: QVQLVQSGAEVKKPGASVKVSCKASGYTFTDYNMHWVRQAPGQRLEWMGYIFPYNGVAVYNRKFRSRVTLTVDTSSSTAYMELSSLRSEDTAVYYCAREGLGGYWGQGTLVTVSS VL: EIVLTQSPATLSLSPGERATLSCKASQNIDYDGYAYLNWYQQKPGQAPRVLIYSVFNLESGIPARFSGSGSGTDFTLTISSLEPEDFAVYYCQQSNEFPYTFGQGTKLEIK	1
hu29 (antibody, V domains shown, 1F5 HC-1/1A2 LC2-3) VH: QVQLVQSGAEVKKPGASVKVSCKASGYTFIDFNMHWVRQAPGQRLEWMGYIYPYNGDVVYNQNFTNRVTLTVDTSSSTAYMELSSLRSEDTAVYYCAREGLGGYWGQGTLVTVSS VL: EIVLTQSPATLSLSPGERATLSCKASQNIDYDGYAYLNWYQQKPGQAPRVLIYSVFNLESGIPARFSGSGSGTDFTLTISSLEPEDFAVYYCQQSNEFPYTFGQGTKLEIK	1

Kindly consider the entry below.
Strictly below 70% in Relative binding activity, %? hu22 (antibody, V domains shown, 1B2 HC-2/2B8 LC2-1) VH: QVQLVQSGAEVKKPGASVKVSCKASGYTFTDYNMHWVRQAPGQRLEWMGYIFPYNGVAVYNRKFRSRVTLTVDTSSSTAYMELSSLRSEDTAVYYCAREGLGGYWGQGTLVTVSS VL: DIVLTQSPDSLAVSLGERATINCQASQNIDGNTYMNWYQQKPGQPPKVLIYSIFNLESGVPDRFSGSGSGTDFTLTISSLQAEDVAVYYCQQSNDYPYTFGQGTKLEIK
0
